- Assay system: CGRP receptor: calcitonin receptor-like receptor (CRLR) with receptor activity modifying protein-1 (RAMP1), stably transfected in Chinese hamster ovary (CHO) cells together with CRE luciferase
- Assay comment: cell-based or functional assay
*1 amine or outer side, *2 acyl side, *3 side chain or, on linkers, in order; H or OH if unused. Bridges are numbered along the chain shown (N, C = ends). Where no end group is shown, it is not given here. Side-chain parts run from the residue outwards. The star is where a group is joined. C18 diacid = O=C(O)CCCCCCCCCCCCCCCCC(=O)*; γGlu = O=C(O)[C@H](CCC(=O)[*:2])N[*:1]; AEEA = NCCOCCOCC(=O)O
Could you label it 1 if measured pEC50-ratio relative to human alpha-CGRP is 0.3 or higher, and 0 otherwise?

Binder	Group label
ACDTATCVTHRLAGLLSRSGGVVKNNFVPTK([AEEA-AEEA-γGlu-C18 diacid])VGSKAF (disulfide 2-7; ends not checked) [human alpha-CGRP acylated at position 31]	1
ACDTATCVTHRLAGLLSRSGGVVKNK([AEEA-AEEA-γGlu-C18 diacid])FVPTNVGSKAF (disulfide 2-7; ends not checked) [human alpha-CGRP acylated at position 26]	1
ACDK([AEEA-AEEA-γGlu-C18 diacid])ATCVTHRLAGLLSRSGGVVKNNFVPTNVGSKAF (disulfide 2-7; ends not checked) [human alpha-CGRP acylated at position 4]	0
ACK([AEEA-AEEA-γGlu-C18 diacid])TATCVTHRLAGLLSRSGGVVKNNFVPTNVGSKAF (disulfide 2-7; ends not checked) [human alpha-CGRP acylated at position 3]	0
ACDTATCVTHRLAGLLSRSGGVVKKNFVPTNVGSKAF (position 25 (printed X) = N-ε-{2-(2-{2-[2-(2-{2-[4-carboxy-4-(17-carboxyheptadecanoylamino)butyrylamino]ethoxy}ethoxy)-acetylamino]ethoxy}ethoxy)acetyl})-L-lysine; Cys2 and Cys7 are cyclised with a disulfide bond) [human alpha-CGRP acylated at position 25]	0
ACDTATCVTHRLAGLLSRSGGVVKNNFVK([AEEA-AEEA-γGlu-C18 diacid])TNVGSKAF (disulfide 2-7; ends not checked) [human alpha-CGRP acylated at position 29]	1

# input Tell me whether pEC50-ratio relative to human alpha-CGRP is at least 0.3 here: ACDTATCVTHK([AEEA-AEEA-γGlu-C18 diacid])LAGLLSRSGGVVKNNFVPTNVGSKAF (disulfide 2-7; ends not checked) [human alpha-CGRP acylated at position 11]
# output 0

# input Tell me whether pEC50-ratio relative to human alpha-CGRP is at least 0.3 here: ACDTATCVTHRLAGLLSRSGGVVKNNFK([AEEA-AEEA-γGlu-C18 diacid])PTNVGSKAF (disulfide 2-7; ends not checked) [human alpha-CGRP acylated at position 28]
# output 1
